Target: T1, Recombinant mouse MMR (R&D systems) (mouse, UniProt Q61830 20-1388)
T1 construct: Antigen of the PE-ELISA and the SPR; also called mMMR; recombinant mMMR
T1 sequence: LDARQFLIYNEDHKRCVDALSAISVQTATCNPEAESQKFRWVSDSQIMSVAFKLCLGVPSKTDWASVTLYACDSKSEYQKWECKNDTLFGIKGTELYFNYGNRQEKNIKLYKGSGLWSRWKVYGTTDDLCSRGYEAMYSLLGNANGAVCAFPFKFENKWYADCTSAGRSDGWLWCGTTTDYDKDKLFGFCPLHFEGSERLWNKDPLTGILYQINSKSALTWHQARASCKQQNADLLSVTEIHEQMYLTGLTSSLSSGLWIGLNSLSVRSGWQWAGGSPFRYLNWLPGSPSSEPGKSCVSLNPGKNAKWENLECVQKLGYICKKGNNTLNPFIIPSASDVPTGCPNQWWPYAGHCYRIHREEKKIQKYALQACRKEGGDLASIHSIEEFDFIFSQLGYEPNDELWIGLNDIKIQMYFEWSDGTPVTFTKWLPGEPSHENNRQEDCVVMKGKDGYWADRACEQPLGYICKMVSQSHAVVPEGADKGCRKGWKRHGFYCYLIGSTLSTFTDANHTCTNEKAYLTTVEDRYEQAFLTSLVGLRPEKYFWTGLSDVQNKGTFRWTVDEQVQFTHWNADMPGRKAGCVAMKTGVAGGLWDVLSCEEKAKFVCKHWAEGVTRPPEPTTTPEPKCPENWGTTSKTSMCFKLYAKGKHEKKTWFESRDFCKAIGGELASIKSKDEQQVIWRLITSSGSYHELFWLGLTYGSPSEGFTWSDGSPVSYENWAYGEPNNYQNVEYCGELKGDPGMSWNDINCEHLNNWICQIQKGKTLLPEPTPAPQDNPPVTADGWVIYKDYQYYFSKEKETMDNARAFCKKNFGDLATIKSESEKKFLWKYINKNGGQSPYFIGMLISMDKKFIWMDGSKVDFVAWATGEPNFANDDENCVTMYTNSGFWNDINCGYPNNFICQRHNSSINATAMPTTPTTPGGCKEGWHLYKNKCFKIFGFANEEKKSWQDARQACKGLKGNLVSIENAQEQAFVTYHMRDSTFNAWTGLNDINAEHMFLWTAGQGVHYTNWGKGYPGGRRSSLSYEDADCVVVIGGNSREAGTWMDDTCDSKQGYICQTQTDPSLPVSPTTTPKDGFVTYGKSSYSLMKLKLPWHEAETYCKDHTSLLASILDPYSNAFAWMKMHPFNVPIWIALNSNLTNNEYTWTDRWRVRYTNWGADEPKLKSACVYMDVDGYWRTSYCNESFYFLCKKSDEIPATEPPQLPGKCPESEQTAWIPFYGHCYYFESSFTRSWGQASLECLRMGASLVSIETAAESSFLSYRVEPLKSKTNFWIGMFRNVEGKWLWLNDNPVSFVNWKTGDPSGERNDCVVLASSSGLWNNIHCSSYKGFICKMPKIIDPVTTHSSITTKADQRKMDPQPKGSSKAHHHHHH
Assay: SPR, BIAcore T100; mouse MMR on CM5 chip, sdAb as analyte
Readout label: koff (s⁻¹)
Numeric only. Scale: s⁻¹

Query :: Which koff is reported for this binder? NbhmMMRm22.84 (VHH, Produced from pMECS with C-terminal HA and 6xHis tag) VHH: QVQLQESGGGLVQPGGSLRLSCAASGRTFSNYVNYAMGWFRQFPGKEREFVASISWSSVTTYYADSVKGRFTISRDNAKNTVYLQMNSLKPEDTAVYYCAAHLAQYSDYAYRDPHQFGAWGQGTQVTVSS
Result :: 0.004

Query :: Which koff is reported for this binder? NbhmMMRm24.31 (VHH, Produced from pMECS with C-terminal HA and 6xHis tag) VHH: QVQLQESGGGLVQPGGSLRLSCTATGFTLKNHHIGWLRQAPGKEREGVASINSSGGSTNYADSVQGRFTISRDNAKNTVFLQMNSLKSEDTAVYYCARLRRYYGLNLDPGSYDYWGQGTQVTVSS
Result :: 0.0021

Query :: Which koff is reported for this binder? NbhmMMRm26.70 (VHH, Produced from pMECS with C-terminal HA and 6xHis tag) VHH: QVQLQESGGGLVQPGGSLRLSCTASGFPFSSAPMSWVRQAPGKELEWVSYIGYTGTITDYANSVKGRFTISRDNAKNRLYLQMNSLKPEDTAVYFCAQGYARLIADSDLVRGQGTQVTVSS
Result :: 0.0013

Query :: Which koff is reported for this binder? NbhMMRm3.1 (VHH, Produced from pMECS with C-terminal HA and 6xHis tag; also called NbhmMMRm3.1) VHH: QVQLQESGGGLVQPGGSLRLSCAASGFTLDYYAIGWFRQAPGKEREGISCISYKGGSTTYADSVKGRFTISKDNAKNTAYLQMNNLKPEDTGIYYCAAGFVCYNYDYWGPGTQVTVSS
Result :: 0.004

FYI, the data here is from patent US20150093336A1.
